Where do the numbers come from? From patent US20100298225A1.

- SYSTEM_TESTED: Recombinant Cx43CT (carboxyl terminal domain of connexin43, sequence 255-382 of rCx43 preceded by GPLG) (rat, UniProt P08050)
- Sequence (P08050 other isoform, or with tags, fused parts or gaps limits assumed): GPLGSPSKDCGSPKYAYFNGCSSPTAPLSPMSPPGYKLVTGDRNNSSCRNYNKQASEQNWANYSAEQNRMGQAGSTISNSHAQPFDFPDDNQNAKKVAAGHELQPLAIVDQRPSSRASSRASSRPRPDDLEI
- MEASUREMENT_PROTOCOL: SPR, Cx43CT immobilised, peptide at 500 uM
MEASUREMENT_NAME: SPR respons at 500 uM (arbitrary units)
One number for each entry, in arbitrary units.

Consider the following illustrative entries.
Entry Ac-RRNY-NH2 [Compound 2498] : reported SPR respons at 500 uM = ?
50.9

Entry Ac-RRNYGGGRRNY-NH2 [Compound 2509] : reported SPR respons at 500 uM = ?
281

Entry Ac-RRNYSAVPFYSHSRRNY-NH2 [Compound 2506] : reported SPR respons at 500 uM = ?
562

Entry Ac-RRNYVPRRNY-NH2 [Compound 2512] : reported SPR respons at 500 uM = ?
227

Entry Ac-RRNYAVPFRRNY-NH2 [Compound 2511] : reported SPR respons at 500 uM = ?
390

Entry Ac-RRNYSHSRRNY-NH2 [Compound 2507] : reported SPR respons at 500 uM = ?
438

---
Entry Ac-YNRRGGGSAVPFYSHSYNRR-NH2 [Compound 2496] : reported SPR respons at 500 uM = ?
739
